- experimental.target: UniProtKB P03956
- Sequence (P03956 whole entry): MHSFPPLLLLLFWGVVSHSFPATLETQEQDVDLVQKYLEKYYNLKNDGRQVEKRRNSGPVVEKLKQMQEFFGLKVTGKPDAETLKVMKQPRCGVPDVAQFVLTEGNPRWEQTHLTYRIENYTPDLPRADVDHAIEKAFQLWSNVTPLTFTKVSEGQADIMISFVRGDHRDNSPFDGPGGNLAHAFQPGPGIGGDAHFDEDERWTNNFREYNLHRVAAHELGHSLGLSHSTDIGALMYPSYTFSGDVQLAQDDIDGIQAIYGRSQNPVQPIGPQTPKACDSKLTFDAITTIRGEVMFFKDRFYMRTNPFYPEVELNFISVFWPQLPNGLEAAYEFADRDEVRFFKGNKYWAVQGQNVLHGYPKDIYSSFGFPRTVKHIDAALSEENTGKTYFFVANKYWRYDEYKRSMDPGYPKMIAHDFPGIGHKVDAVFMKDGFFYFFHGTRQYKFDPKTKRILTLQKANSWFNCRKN
- test.method.notes: Inhibition of Recombinant human matrix metalloprotease-1
measured.metric: Ki (nM)
Give the quantity in nM, number only.

Form field Ki, entry COc1ccc(S(=O)(=O)N2C[C@@H]3OC(C)(C)O[C@H]3[C@@H](OC(C)=O)[C@@H]2C(=O)NO)cc1 : 162

Form field Ki, entry COc1ccc(S(=O)(=O)N2C[C@@H]3OC(C)(C)O[C@H]3[C@@H](O)[C@@H]2C(=O)NO)cc1 : 26

====

- experimental.target: Stromelysin-1 (Homo sapiens, UniProt P08254)
- Sequence (P08254 whole entry): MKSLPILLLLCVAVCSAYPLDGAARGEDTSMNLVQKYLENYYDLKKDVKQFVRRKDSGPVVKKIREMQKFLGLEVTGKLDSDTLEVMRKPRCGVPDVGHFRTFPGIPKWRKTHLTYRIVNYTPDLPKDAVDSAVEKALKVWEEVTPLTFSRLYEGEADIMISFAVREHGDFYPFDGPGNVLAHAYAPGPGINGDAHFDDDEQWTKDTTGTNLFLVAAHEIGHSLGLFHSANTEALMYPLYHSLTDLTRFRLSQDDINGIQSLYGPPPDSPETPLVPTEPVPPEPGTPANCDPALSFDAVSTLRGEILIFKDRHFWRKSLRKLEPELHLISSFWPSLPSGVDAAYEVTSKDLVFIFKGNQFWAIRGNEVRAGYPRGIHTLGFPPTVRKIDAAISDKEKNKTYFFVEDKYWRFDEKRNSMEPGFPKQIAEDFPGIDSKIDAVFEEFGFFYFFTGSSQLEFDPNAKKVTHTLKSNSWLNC
- test.method.notes: Inhibition of recombinant human matrix metalloprotease-3
measured.metric: Ki (nM)
Give the quantity in nM, number only.

Form field Ki, entry COc1ccc(S(=O)(=O)N2C[C@@H]3OC(C)(C)O[C@H]3[C@@H](OC(C)=O)[C@@H]2C(=O)NO)cc1 : 50

Form field Ki, entry COc1ccc(S(=O)(=O)N2C[C@H](O)[C@H]3OC(C)(C)O[C@H]3[C@@H]2C(=O)NO)cc1 : 44

Form field Ki, entry COc1ccc(S(=O)(=O)N2C[C@@H]3OC(C)(C)O[C@H]3[C@@H](O)[C@@H]2C(=O)NO)cc1 : 3.7

====

Provide the reported Ki of each item.
- experimental.target: Matrix metalloproteinase-9 (Homo sapiens, UniProt P14780)
- Sequence (P14780 whole entry): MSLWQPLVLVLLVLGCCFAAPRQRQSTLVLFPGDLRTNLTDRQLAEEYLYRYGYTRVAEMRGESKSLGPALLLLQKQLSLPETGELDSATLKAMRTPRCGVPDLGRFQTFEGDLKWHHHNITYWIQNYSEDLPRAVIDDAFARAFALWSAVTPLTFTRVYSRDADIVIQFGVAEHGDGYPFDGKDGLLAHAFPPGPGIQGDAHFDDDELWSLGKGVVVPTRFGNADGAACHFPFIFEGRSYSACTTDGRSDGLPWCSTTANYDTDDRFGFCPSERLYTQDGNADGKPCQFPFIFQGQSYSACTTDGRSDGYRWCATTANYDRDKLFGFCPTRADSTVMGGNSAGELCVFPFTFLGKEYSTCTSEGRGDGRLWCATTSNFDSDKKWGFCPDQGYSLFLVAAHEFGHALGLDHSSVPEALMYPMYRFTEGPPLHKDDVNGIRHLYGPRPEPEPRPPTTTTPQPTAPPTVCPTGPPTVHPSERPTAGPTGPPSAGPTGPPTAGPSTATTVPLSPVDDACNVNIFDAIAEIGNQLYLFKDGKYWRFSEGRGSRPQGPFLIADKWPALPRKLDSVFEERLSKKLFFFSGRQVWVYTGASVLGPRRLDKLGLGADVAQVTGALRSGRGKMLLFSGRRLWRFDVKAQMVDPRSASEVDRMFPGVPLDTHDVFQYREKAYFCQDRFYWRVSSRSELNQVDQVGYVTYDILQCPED
- test.method.notes: Inhibition of recombinant human matrix metalloprotease-9 (gelatinase B)
Give the quantity in nM, number only.

Form field Ki, entry COc1ccc(S(=O)(=O)N2C[C@@H]3OC(C)(C)O[C@H]3[C@@H](O)[C@@H]2C(=O)NO)cc1 : 21

Form field Ki, entry COc1ccc(S(=O)(=O)N2C[C@H](O)[C@H]3OC(C)(C)O[C@H]3[C@@H]2C(=O)NO)cc1 : 310

Form field Ki, entry COc1ccc(S(=O)(=O)N2C[C@@H]3OC(C)(C)O[C@H]3[C@@H](OC(C)=O)[C@@H]2C(=O)NO)cc1 : 47
